biological target: C5a receptor (Homo sapiens); assay: Anaphylatoxin (C5a) receptor binding Ki determination, 125I-C5a on PMNL membrane fragments; details: read-out: Ki (In vitro C5a Receptor Binding Potency)
Listed here are compounds together with their documented Ki.
Entry rule: numbers only, all in µM.

Ask: Entry CC(C)C[C@H](NC(=O)CNC(=O)[C@H](CC1CCCCC1)NC(=O)CN)C(=O)NC(CCCc1ccccc1)C(=O)N[C@@H](CCCNC(=N)N)C(=O)O (single isomer, unassigned) [Example 72] has what Ki?
Result: 4.27

With those in mind, consider the next compound.
Ask: Recorded Ki for CC(C)C[C@H](NC(=O)[C@H](C)NC(=O)[C@H](CC1CCCCC1)NC(=O)[C@@H]1CCCN1C(=O)[C@H](CCCCN)NC(=O)CN)C(=O)NC(CCCc1ccccc1)C(=O)N[C@@H](CCCNC(=N)N)C(=O)O (single isomer, unassigned) [Example 52] , please?
Result: 10.3

---

Molecular target: UniProtKB P21730
Sequence (P21730 1-350): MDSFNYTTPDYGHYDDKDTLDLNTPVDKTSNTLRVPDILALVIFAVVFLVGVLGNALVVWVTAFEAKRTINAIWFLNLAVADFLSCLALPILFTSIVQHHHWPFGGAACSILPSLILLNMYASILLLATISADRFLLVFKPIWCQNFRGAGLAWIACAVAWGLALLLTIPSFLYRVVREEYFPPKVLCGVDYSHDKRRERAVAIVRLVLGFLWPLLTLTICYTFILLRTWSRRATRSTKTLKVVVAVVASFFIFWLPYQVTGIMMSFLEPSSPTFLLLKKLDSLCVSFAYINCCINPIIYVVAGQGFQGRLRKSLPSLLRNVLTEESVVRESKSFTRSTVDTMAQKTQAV
Experiment: Anaphylatoxin (C5a) receptor binding Ki determination, 125I-C5a on PMNL membrane fragments
Details: read-out: Ki (In vitro C5a Receptor Binding Potency)
Where a SMILES comes first, the peptide text is derived from it. [ ]: non-standard residue; d: D form. The star is where a group is joined. d(hhPhe) = N[C@H](CCCc1ccccc1)C(=O)O; Cha = N[C@@H](CC1CCCCC1)C(=O)O; PhAc = O=C(Cc1ccccc1)*
Reported values of Ki for individual entries
Your reply should be a number followed by the unit it is expressed in.

The following molecules have reported results that may help.
Ask: // query Ki value for entry CC(C)C[C@H](NC(=O)CNC(=O)[C@H](CC1CCCCC1)NC(=O)NCc1cccc(CN)c1)C(=O)NC(CCCc1ccccc1)C(=O)N[C@@H](CCCNC(=N)N)C(=O)O (single isomer, unassigned) [Example 142]
Result: 1.3 µM

Ask: Which Ki is reported for this molecule? CC(C)C[C@H](NC(=O)CNC(=O)[C@H](CC1CCCCC1)NC(=O)CCCCN)C(=O)NC(CCCc1ccccc1)C(=O)N[C@@H](CCCNC(=N)N)C(=O)O (single isomer, unassigned) [Example 140]
Result: 18.6 µM

Ask: # Ki lookup, item CC(C)C[C@H](NC(=O)CNC(=O)[C@H](CC1CCCCC1)NC(=O)CCCCCN)C(=O)NC(CCCc1ccccc1)C(=O)N[C@@H](CCCNC(=N)N)C(=O)O (single isomer, unassigned) [Example 71]
Result: 0.15 µM

New cases:
Ask: Param item = CC(C)C[C@H](NC(=O)CNC(=O)[C@@H](CC1CCCCC1)NC(=O)CCCCCN)C(=O)NC(CCCc1ccccc1)C(=O)N[C@@H](CCCNC(=N)N)C(=O)O (single isomer, unassigned) [Example 35] ; retrieve measured Ki.
Result: 1.27 µM

Ask: Suppose we examine the molecule CC(C)C[C@H](NC(=O)CNC(=O)[C@H](CC1CCCCC1)N(C)C(=O)CCCCN)C(=O)NC(CCCc1ccccc1)C(=O)N[C@@H](CCCNC(=N)N)C(=O)O (single isomer, unassigned) [Example 36] ; what Ki value has been reported?
Result: 9.7 µM

Ask: Name the recorded Ki for CC(C)C[C@H](NC(=O)CNC(=O)[C@H](CC1CCCCC1)NC(=O)NCc1ccc(CN)cc1)C(=O)NC(CCCc1ccccc1)C(=O)N[C@@H](CCCNC(=N)N)C(=O)O (mixture of isomers) [Example 145] .
Result: 7 µM

Ask: I'd like to know its Ki. The molecule in question is CC(C)C[C@H](NC(=O)CNC(=O)[C@H](CC1CCCCC1)NC(=O)[C@@H](N)CCCCN)C(=O)NC(CCCc1ccccc1)C(=O)N[C@@H](CCCNC(=N)N)C(=O)O (single isomer, unassigned) [Example 42]
Result: 0.45 µM

Ask: Request the reported Ki associated with CC(C)C[C@H](NC(=O)CNC(=O)[C@H](CC1CCCCC1)NC(=O)Cc1ccccc1)C(=O)N[C@H](CCCc1ccccc1)C(=O)N[C@@H](CCCNC(=N)N)C(=O)O [Example 47] (PhAc-[Cha]GL[d(hhPhe)]R-OH)
Result: 1.1 µM

Ask: Endpoint output: Ki of CC(C)C[C@@H](NC(=O)CNC(=O)[C@H](CC1CCCCC1)NC(=O)CCCCCN)C(=O)NC(CCCc1ccccc1)C(=O)N[C@@H](CCCNC(=N)N)C(=O)O (single isomer, unassigned) [Example 100] . Value?
Result: 60 µM

---

Molecular target: C5a receptor (Homo sapiens)
Sequence (P21730 1-350): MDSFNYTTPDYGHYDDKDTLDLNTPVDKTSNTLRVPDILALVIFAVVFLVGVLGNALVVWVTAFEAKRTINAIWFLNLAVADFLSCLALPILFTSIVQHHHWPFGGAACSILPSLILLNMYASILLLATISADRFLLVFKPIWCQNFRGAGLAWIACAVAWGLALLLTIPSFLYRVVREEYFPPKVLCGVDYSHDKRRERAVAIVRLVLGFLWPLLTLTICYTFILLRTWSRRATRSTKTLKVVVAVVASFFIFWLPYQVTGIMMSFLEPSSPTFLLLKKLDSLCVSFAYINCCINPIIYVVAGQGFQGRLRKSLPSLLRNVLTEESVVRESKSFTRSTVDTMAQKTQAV
Assay: Anaphylatoxin (C5a) receptor binding Ki determination, 125I-C5a on PMNL membrane fragments
Settings: read-out: Ki (In vitro C5a Receptor Binding Potency)
Collected pKi values appear next to each entry.
The quantity pKi is defined as the negative base-10 logarithm of the molar concentration.

A selection of reference data follows.
Ask: Any idea what its pKi is? The molecule is CC(C)C[C@H](NC(=O)[C@H](C)NC(=O)[C@H](CC1CCCCC1)NC(=O)[C@@H]1CCCN1C(=O)[C@@H](N)CCCCN)C(=O)NC(CCCc1ccccc1)C(=O)N[C@@H](CCCNC(=N)N)C(=O)O (single isomer, unassigned) [Example 68]
Result: 4.85

Ask: // lookup pKi for CN[C@@H](Cc1ccccc1)C(=O)N[C@@H](CCCCN)C(=O)N1CCC[C@H]1C(=O)N[C@@H](CC1CCCCC1)C(=O)N[C@@H](C)C(=O)N[C@@H](CC(C)C)C(=O)NC(CCCc1ccccc1)C(=O)N[C@@H](CCCNC(=N)N)C(=O)O (single isomer, unassigned) [Example 128]
Result: 7.57

Ask: I am curious: what pKi value has been reported for CC(C)C[C@H](NC(=O)CNC(=O)[C@H](Cc1ccccc1)NC(=O)CCCCCN)C(=O)NC(CCCc1ccccc1)C(=O)N[C@@H](CCCNC(=N)N)C(=O)O (single isomer, unassigned) [Example 124] ?
Result: 4.47

Kindly review the next molecule as well.
Ask: pKi lookup needed for CC(C)C[C@H](NC(=O)CNC(=O)[C@H](CC1CCCCC1)NC(=O)[C@H](N)CCCCN)C(=O)NC(CCCc1ccccc1)C(=O)N[C@@H](CCCNC(=N)N)C(=O)O (single isomer, unassigned) [Example 56] , thanks.
Result: 4.57

---

Target: C5a receptor (Homo sapiens)
Sequence (P21730 1-350): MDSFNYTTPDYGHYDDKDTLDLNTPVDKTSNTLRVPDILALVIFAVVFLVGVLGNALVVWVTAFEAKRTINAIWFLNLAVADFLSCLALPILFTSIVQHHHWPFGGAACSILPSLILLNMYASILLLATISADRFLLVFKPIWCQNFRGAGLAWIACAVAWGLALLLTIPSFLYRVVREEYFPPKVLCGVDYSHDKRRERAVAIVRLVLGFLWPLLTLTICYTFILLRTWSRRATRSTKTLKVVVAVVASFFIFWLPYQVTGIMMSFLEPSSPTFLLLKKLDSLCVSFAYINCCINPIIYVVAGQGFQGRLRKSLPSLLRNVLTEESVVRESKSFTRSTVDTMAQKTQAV
Assay: Anaphylatoxin (C5a) receptor binding Ki determination, 125I-C5a on PMNL membrane fragments
Settings: read-out: Ki (In vitro C5a Receptor Binding Potency)
pKi: −log10 of the molar value. Where a SMILES comes first, the peptide text is derived from it. [ ]: non-standard residue; d: D form. The star is where a group is joined. d(hhPhe) = N[C@H](CCCc1ccccc1)C(=O)O; Hydrocinnamoyl = O=C(CCc1ccccc1)*; X10 = O=C(Cc1c[nH]c2ccccc12)*; PhAc = O=C(Cc1ccccc1)*
Cut-off 7 on pKi, inclusive. At or above means y; below means n.

Example results:
Ask: Decide: is the reported value of pKi for CC(C)C[C@H](NC(=O)[C@H](C)NC(=O)[C@H](CC1CCCCC1)NC(=O)[C@@H]1CCCN1C(=O)[C@H](C)NC(=O)[C@@H](N)Cc1ccccc1)C(=O)NC(CCCc1ccccc1)C(=O)N[C@@H](CCCNC(=N)N)C(=O)O (mixture of isomers) [Example 143] equal to or greater than 7?
Result: y

Ask: Item CC(C)C[C@H](NC(=O)CNC(=O)CCc1ccccc1)C(=O)N[C@H](CCCc1ccccc1)C(=O)N[C@@H](CCCNC(=N)N)C(=O)O [Example 92] (Hydrocinnamoyl-GL[d(hhPhe)]R-OH) with pKi of 7 or above?
Result: n

Ask: # bool: pKi of CC(C)C[C@H](NC(=O)CNC(=O)Cc1c[nH]c2ccccc12)C(=O)N[C@H](CCCc1ccccc1)C(=O)N[C@@H](CCCNC(=N)N)C(=O)O [Example 50] (X10-GL[d(hhPhe)]R-OH) >= 7
Result: n

Ask: hey, is pKi for this one >= 7? CC(C)C[C@H](NC(=O)[C@H](CC1CCCCC1)NC(=O)CCCCCN)C(=O)NC(CCCc1ccccc1)C(=O)N[C@@H](CCCNC(=N)N)C(=O)O (single isomer, unassigned) [Example 87]
Result: n

Consider the additional molecule presented here.
Ask: Evaluate CC(C)C[C@H](NC(=O)CNC(=O)Cc1ccccc1)C(=O)N[C@H](CCCc1ccccc1)C(=O)N[C@@H](CCCNC(=N)N)C(=O)O [Example 93] (PhAc-GL[d(hhPhe)]R-OH) : pKi at minimum 7?
Result: n
